biological target: UniProt:P00746; assay: Inhibition Assay
Sequence (P00746 whole entry): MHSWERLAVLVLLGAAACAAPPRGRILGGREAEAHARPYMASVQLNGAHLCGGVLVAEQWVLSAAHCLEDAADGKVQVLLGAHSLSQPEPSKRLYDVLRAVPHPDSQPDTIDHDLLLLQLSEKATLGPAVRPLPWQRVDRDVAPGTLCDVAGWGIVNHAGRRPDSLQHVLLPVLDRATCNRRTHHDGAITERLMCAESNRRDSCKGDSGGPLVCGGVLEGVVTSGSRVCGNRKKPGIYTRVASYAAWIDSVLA
recorded-metric: IC50

| molecule | target-system | observed-measurement |
| --- | --- | --- |
| CC(=O)c1cn(CC(=O)N2C[C@H](F)C[C@H]2C(=O)Nc2ccccc2-c2nc3ccccc3s2)c2ccc(Nc3cncnc3)cc12 [US10660876, Cmpd No. 32] | UniProt:P00746 | > 10 µM |
